test: Therapeutic index, CC50 for human 293T cells to EC50 for G-pseudotyped HIV; format: cell-based; settings: read-out: Ratio CC50/EC50
Recorded measurements of selectivity ratio, one per entry
Output: the number by itself.

{"smiles-str": "CC(C)NS(=O)(=O)c1ccccc1-c1nc(-c2nnc(Cc3ccc(F)cc3)o2)c(O)c2ncccc12", "selectivity ratio": 295}
{"smiles-str": "O=C1N(CCO)CCN1c1nc(-c2nnc(Cc3ccc(F)cc3)o2)c(O)c2ncccc12", "selectivity ratio": 148}
{"smiles-str": "Oc1c(-c2nnc(Cc3ccc(F)cc3)o2)nc(-c2cnccn2)c2cccnc12", "selectivity ratio": 24}
{"smiles-str": "O=C(O)c1ccc(-c2nc(-c3nnc(Cc4ccc(F)cc4)o3)c(O)c3ncccc23)cc1", "selectivity ratio": 241}
{"smiles-str": "CN(C)S(=O)(=O)c1ccc(-c2nc(-c3nnc(Cc4ccc(F)cc4)o3)c(O)c3ncccc23)cc1", "selectivity ratio": 218}

We now examine a further compound.
Field request: selectivity ratio | item: CN(C)C(=O)N1CCN(c2nc(-c3nnc(Cc4ccc(F)cc4)o3)c(O)c3ncccc23)C(=O)C1
120

----------
experiment: Inhibition of recombinant HIV integrase strand transfer activity; set-up: species or system Human immunodeficiency virus
observable: pIC50
In textbook form, pIC50 equals minus log to base ten of the concentration in mol/L.

{"smiles-str": "CN1CCCN(c2nc(-c3nnc(Cc4ccc(F)cc4)o3)c(O)c3ncccc23)S1(=O)=O", "pIC50": 8.22}
{"smiles-str": "CNC(=O)c1ccc(-c2nc(-c3nnc(Cc4ccc(F)cc4)o3)c(O)c3ncccc23)cc1", "pIC50": 8.40}
{"smiles-str": "Oc1c(-c2nnc(Cc3ccc(F)cc3)o2)nc(-n2cccn2)c2cccnc12", "pIC50": 8.40}

Consider the compound shown here: CC(=O)Nc1nc(-c2nnc(Cc3ccc(F)cc3)o2)c(O)c2ncccc12 What is its recorded pIC50?
7.14

Item under review: CS(=O)(=O)N1CCN(c2nc(-c3nnc(Cc4ccc(F)cc4)o3)c(O)c3ncccc23)CC1 . Reported pIC50?
7.72

Which pIC50 is reported for this compound? CS(=O)(=O)c1ccccc1-c1nc(-c2nnc(Cc3ccc(F)cc3)o2)c(O)c2ncccc12
7.96

----------
test: Inhibition of recombinant HIV integrase strand transfer activity; set-up: species or system Human immunodeficiency virus
observable: log10(IC50) (log10 of the value in nM)
Note the log scale: values are log10 of IC50 expressed in nM.

{"smiles-str": "COCCNC(=O)c1nc(-c2nnc(Cc3ccc(F)cc3)o2)c(O)c2ncccc12", "log10(IC50)": 2.28}
{"smiles-str": "O=C1CN(C(=O)c2nc(-c3nnc(Cc4ccc(F)cc4)o3)c(O)c3ncccc23)CCN1", "log10(IC50)": 1.87}
{"smiles-str": "NC(=O)c1ccc(-c2nc(-c3nnc(Cc4ccc(F)cc4)o3)c(O)c3ncccc23)cc1", "log10(IC50)": 0.78}
{"smiles-str": "O=S1(=O)CCCCN1c1nc(-c2nnc(Cc3ccc(F)cc3)o2)c(O)c2ncccc12", "log10(IC50)": 0.30}
{"smiles-str": "CNS(=O)(=O)c1ccccc1-c1nc(-c2nnc(Cc3ccc(F)cc3)o2)c(O)c2ncccc12", "log10(IC50)": 0.60}
{"smiles-str": "Oc1c(-c2nnc(Cc3ccc(F)cc3)o2)nc(-c2cccnc2)c2cccnc12", "log10(IC50)": 1.04}

Report log10(IC50) for Cc1ccn(-c2nc(-c3nnc(Cc4ccc(F)cc4)o3)c(O)c3ncccc23)n1 please.
1.32

Which log10(IC50) value is on record for O=C(O)c1nc(-c2nnc(Cc3ccc(F)cc3)o2)c(O)c2ncccc12 ?
2.93

Field request: log10(IC50) | item: O=C1CCCCN1c1nc(-c2nnc(Cc3ccc(F)cc3)o2)c(O)c2ncccc12
1.94

----------
# key: entry, value: selectivity ratio
assay: Therapeutic index, CC50 for human 293T cells to EC50 for G-pseudotyped HIV; assay type: cell-based; settings: read-out: Ratio CC50/EC50

{"smiles-str": "CN(C)S(=O)(=O)c1ccccc1-c1nc(-c2nnc(Cc3ccc(F)cc3)o2)c(O)c2ncccc12", "observable": "selectivity ratio", "observed-value": 67}
{"smiles-str": "CC(C)NC(=O)c1ccc(-c2nc(-c3nnc(Cc4ccc(F)cc4)o3)c(O)c3ncccc23)cc1", "observable": "selectivity ratio", "observed-value": 95}
{"smiles-str": "CN(C)C(=O)c1ccc(-c2nc(-c3nnc(Cc4ccc(F)cc4)o3)c(O)c3ncccc23)cc1", "observable": "selectivity ratio", "observed-value": 668}
{"smiles-str": "CN1CCN(c2nc(-c3nnc(Cc4ccc(F)cc4)o3)c(O)c3ncccc23)S1(=O)=O", "observable": "selectivity ratio", "observed-value": 137}

# input compound: CS(=O)(=O)Nc1nc(-c2nnc(Cc3ccc(F)cc3)o2)c(O)c2ncccc12 ; wanted: its selectivity ratio
131

----------
experiment: Therapeutic index, CC50 for human 293T cells to EC50 for G-pseudotyped HIV; assay type: cell-based; details: read-out: Ratio CC50/EC50
Please enter 1 (yes) where selectivity ratio is greater than or equal to 60, and 0 (no) where it is lower.

Here are 5 compounds together with their reported answers.
{"smiles-str": "CN1CCCN(c2nc(-c3nnc(Cc4ccc(F)cc4)o3)c(O)c3ncccc23)S1(=O)=O", "group-label": "1 (yes)"}
{"smiles-str": "O=C1CNCCN1c1nc(-c2nnc(Cc3ccc(F)cc3)o2)c(O)c2ncccc12", "group-label": "0 (no)"}
{"smiles-str": "CN(C)C(=O)CN1CCN(c2nc(-c3nnc(Cc4ccc(F)cc4)o3)c(O)c3ncccc23)CC1", "group-label": "1 (yes)"}
{"smiles-str": "CC(=O)Nc1ccc(-c2nc(-c3nnc(Cc4ccc(F)cc4)o3)c(O)c3ncccc23)cc1", "group-label": "1 (yes)"}
{"smiles-str": "CNC(=O)c1nc(-c2nnc(Cc3ccc(F)cc3)o2)c(O)c2ncccc12", "group-label": "0 (no)"}

Hi team, for Oc1c(-c2nnc(Cc3ccc(F)cc3)o2)nc(-c2ccoc2)c2cccnc12 , is the recorded selectivity ratio at or above 60?
1 (yes)

Check this compound for selectivity ratio at or above 60: CC(C)NC(=O)c1nc(-c2nnc(Cc3ccc(F)cc3)o2)c(O)c2ncccc12
0 (no)

Exam item: decide whether the reported selectivity ratio for CN1CCN(C(=O)c2nc(-c3nnc(Cc4ccc(F)cc4)o3)c(O)c3ncccc23)CC1 is at least 60.
1 (yes)

----------
test: Therapeutic index, CC50 for human 293T cells to EC50 for G-pseudotyped HIV; format: cell-based; conditions: read-out: Ratio CC50/EC50
The following compounds are shown together with reported selectivity ratio values.
// response body must contain only the number

{"smiles-str": "N#Cc1ccc(-c2nc(-c3nnc(Cc4ccc(F)cc4)o3)c(O)c3ncccc23)cc1", "observable": "selectivity ratio", "observed-value": 72}
{"smiles-str": "CS(=O)(=O)Nc1ccc(-c2nc(-c3nnc(Cc4ccc(F)cc4)o3)c(O)c3ncccc23)cc1", "observable": "selectivity ratio", "observed-value": 915}

Quick one: selectivity ratio of NC(=O)c1nc(-c2nnc(Cc3ccc(F)cc3)o2)c(O)c2ncccc12 ?
75

Entry under review: CC(=O)Nc1nc(-c2nnc(Cc3ccc(F)cc3)o2)c(O)c2ncccc12 . Reported selectivity ratio?
127

----------
Listed here are molecules together with their documented pIC50.
assay: Inhibition of recombinant HIV integrase strand transfer activity; parameters: species or system Human immunodeficiency virus
Please keep in mind that pIC50 is minus log10 of the molar concentration; only the number is needed.

{"smiles-str": "O=C1OCCN1c1nc(-c2nnc(Cc3ccc(F)cc3)o2)c(O)c2ncccc12", "observed-value": 7.89}

I have this molecule here, CS(=O)(=O)c1cccc(-c2nc(-c3nnc(Cc4ccc(F)cc4)o3)c(O)c3ncccc23)c1 , and I need its recorded pIC50.
8.22

Data request, read-out pIC50, for Oc1c(-c2nnc(Cc3ccc(F)cc3)o2)nc(-c2ccc[nH]2)c2cccnc12
7.92

Query: pIC50; subject: O=C1CN(c2nc(-c3nnc(Cc4ccc(F)cc4)o3)c(O)c3ncccc23)CCN1
8.15

Endpoint output: pIC50 of Oc1c(-c2nnc(Cc3ccc(F)cc3)o2)nc(-c2cnccn2)c2cccnc12 . Value?
7.70

Consider the molecule shown here: CN(C)C(=O)N1CCN(c2nc(-c3nnc(Cc4ccc(F)cc4)o3)c(O)c3ncccc23)C(=O)C1 What is its recorded pIC50?
7.64

# query: pIC50 of entry Oc1c(-c2nnc(Cc3ccc(F)cc3)o2)nc(-c2ccccn2)c2cccnc12
7.52

----------
assay: Therapeutic index, CC50 for human 293T cells to EC50 for G-pseudotyped HIV; assay type: cell-based; conditions: read-out: Ratio CC50/EC50
observable: selectivity ratio
Field format: numeric only.

{"smiles-str": "Oc1c(-c2nnc(Cc3ccc(F)cc3)o2)nc(-c2ccc[nH]2)c2cccnc12", "selectivity ratio": 31}
{"smiles-str": "Oc1c(-c2nnc(Cc3ccc(F)cc3)o2)nc(-c2ccccn2)c2cccnc12", "selectivity ratio": 40}
{"smiles-str": "Oc1c(-c2nnc(Cc3ccc(F)cc3)o2)nc(-c2ccncc2)c2cccnc12", "selectivity ratio": 200}

I'd like to know its selectivity ratio. The compound in question is CNC(=O)c1ccc(-c2nc(-c3nnc(Cc4ccc(F)cc4)o3)c(O)c3ncccc23)cc1
780

Which selectivity ratio reading was recorded for the compound CS(=O)(=O)N1CCN(c2nc(-c3nnc(Cc4ccc(F)cc4)o3)c(O)c3ncccc23)CC1 ?
162

// lookup selectivity ratio for CS(=O)(=O)c1ccccc1-c1nc(-c2nnc(Cc3ccc(F)cc3)o2)c(O)c2ncccc12
243

Name the reported selectivity ratio value associated with the compound COCCNC(=O)c1nc(-c2nnc(Cc3ccc(F)cc3)o2)c(O)c2ncccc12
139
